molecular target: SMARCA4-HiBiT HeLa cells (protein which is expressed from the SMARCA4 gene) (Homo sapiens, UniProt P51532); construct: protein which is expressed from the SMARCA2 and SMARCA4 genes; host or cells: HeLa (SMARCA4-HiBiT engineered line); test: SMARCA4 degradation assay (HiBiT-fusion HeLa cell line, 24 h, luminescence); type: cell-based
Sequence (P51532 whole entry, the tested form may be a part): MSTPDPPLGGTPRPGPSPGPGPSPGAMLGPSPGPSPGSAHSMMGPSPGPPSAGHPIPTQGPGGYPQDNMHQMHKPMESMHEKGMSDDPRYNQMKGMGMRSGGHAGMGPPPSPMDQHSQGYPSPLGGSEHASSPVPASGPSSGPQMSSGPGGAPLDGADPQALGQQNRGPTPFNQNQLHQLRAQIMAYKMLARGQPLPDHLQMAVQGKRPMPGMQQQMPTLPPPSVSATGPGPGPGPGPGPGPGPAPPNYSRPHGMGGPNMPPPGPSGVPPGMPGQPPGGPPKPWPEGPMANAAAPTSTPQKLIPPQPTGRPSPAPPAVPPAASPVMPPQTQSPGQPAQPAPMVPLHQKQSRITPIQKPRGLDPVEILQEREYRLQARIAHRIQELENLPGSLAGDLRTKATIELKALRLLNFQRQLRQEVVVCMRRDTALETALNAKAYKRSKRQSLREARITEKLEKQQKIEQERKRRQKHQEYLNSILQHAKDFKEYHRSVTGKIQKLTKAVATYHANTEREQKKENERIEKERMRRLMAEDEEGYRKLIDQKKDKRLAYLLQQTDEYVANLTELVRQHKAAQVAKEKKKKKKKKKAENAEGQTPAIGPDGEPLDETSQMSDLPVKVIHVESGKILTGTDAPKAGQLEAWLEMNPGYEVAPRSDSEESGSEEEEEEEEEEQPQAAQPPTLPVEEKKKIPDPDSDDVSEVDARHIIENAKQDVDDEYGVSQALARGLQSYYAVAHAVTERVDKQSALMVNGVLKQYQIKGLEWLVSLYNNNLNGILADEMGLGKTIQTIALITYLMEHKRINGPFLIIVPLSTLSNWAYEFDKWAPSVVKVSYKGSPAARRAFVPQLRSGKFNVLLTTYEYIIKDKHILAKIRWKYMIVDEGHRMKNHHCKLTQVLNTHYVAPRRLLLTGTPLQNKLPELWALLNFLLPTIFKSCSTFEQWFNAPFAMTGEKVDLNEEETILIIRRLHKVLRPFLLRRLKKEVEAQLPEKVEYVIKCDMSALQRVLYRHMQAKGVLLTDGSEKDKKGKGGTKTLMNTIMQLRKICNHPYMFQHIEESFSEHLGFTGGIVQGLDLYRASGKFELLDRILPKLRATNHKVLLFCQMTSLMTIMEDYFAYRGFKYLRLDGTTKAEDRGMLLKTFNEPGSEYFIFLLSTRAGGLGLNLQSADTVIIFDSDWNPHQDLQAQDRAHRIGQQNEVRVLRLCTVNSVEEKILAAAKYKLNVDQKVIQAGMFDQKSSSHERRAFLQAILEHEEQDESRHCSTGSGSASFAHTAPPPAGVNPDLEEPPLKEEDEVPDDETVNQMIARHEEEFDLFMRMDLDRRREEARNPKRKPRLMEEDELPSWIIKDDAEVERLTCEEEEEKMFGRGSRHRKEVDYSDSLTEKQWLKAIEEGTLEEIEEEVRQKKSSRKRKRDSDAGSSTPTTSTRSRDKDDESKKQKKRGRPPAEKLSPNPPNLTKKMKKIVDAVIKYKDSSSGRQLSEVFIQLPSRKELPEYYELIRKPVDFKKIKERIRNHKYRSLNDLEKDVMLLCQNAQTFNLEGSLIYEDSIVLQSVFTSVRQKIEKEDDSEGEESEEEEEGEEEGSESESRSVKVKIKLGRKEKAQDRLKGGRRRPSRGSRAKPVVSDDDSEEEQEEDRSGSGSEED
Quick reference: DC50 of the listed items.

The following compounds have reported results that may help.
Cc1ncsc1C(=O)NCC#Cc1nccc(N2CCN(c3cc(-c4ccccc4O)nnc3N)CC2)n1 [Compound P-62]    50 to 500 nM
C[C@@H]1CCN(c2cc(-c3ccccc3O)nnc2N)CCN1c1ccnc(C#CC2CCCCN2C)n1 (stereo partly shown) [Compound P-231]    < 50 nM
CCC1CN(c2ccnc(C#CCNC(=O)c3cc4ncccn4n3)n2)CCN1c1cc(-c2ccccc2O)nnc1N (stereo not shown) [Compound P-51]    50 to 500 nM

Query block: Need DC50, item C[C@@H]1CCN(c2cc(-c3ccccc3O)nnc2N)CCN1c1ccnc(C#CCN2CC(F)(F)[C@H]2C)n1 [Compound P-271]
Result block: 50 to 500 nM

----------
biological target: SMARCA2-HiBiT HeLa cells (protein which is expressed from the SMARCA2 gene) (Homo sapiens); construct: protein which is expressed from the SMARCA2 and SMARCA4 genes; host or cells: HeLa (SMARCA2-HiBiT engineered line); test: SMARCA2 degradation assay (HiBiT-fusion HeLa cell line, 24 h, luminescence); format: cell-based
measured.metric: DC50

Query block: Need DC50, item C[C@@H]1CCN(c2cc(-c3ccccc3O)nnc2N)CCN1c1cc(C#CCn2ccnc2)ncc1F
Result block: 50 to 500 nM

Query block: Another molecule: CC(C)(C)OC(=O)NCC#Cc1nccc(N2CC3CC(Oc4cc(-c5ccccc5O)nnc4N)CC3C2)n1 (stereo not shown)
Result block: 50 to 500 nM

Query block: Another molecule: C[C@@H]1CCN(c2cc(-c3ccccc3O)nnc2N)CCN1c1ccnc(C#CCN2CCCC2=O)c1
Result block: 50 to 500 nM

----------
Quick reference: DC50 of the listed items.
target: SMARCA4-HiBiT HeLa cells (protein which is expressed from the SMARCA4 gene) (Homo sapiens); construct: protein which is expressed from the SMARCA2 and SMARCA4 genes; host or cells: HeLa (SMARCA4-HiBiT engineered line); experiment: SMARCA4 degradation assay (HiBiT-fusion HeLa cell line, 24 h, luminescence); format: cell-based

Nc1nnc(-c2ccccc2O)cc1N1CCN(c2ccnc(C#CCNC(=O)c3ccn(C4CC4)n3)n2)CC1 [Compound P-11]    < 50 nM

Query block: Need DC50, item Nc1nnc(-c2ccccc2O)cc1N1CCCN(c2ccnc(C#CC3COC3)n2)CC1 [Compound P-347]
Result block: 50 to 500 nM

Query block: Another compound: C[C@@H]1CCN(c2cc(-c3ccccc3O)nnc2N)CCN1c1ccnc(C#CC2CCC2)c1 [Compound P-388]
Result block: 500 to 5000 nM

Query block: Another compound: Nc1nnc(-c2ccccc2O)cc1N1CCC2(CCN(c3ccnc(C#CCNC(=O)c4cc5ncccn5n4)n3)CC2)CC1 [Compound P-42]
Result block: 50 to 500 nM

----------
target: SMARCA4-HiBiT HeLa cells (protein which is expressed from the SMARCA4 gene) (Homo sapiens, UniProt P51532); construct: protein which is expressed from the SMARCA2 and SMARCA4 genes; host or cells: HeLa (SMARCA4-HiBiT engineered line); assay: SMARCA4 degradation assay (HiBiT-fusion HeLa cell line, 24 h, luminescence); assay type: cell-based
measured.metric: DC50

The following compounds have reported results that may help.
CC(C)OCC#Cc1cc(N2CCN(c3cc(-c4ccccc4O)nnc3N)CC[C@H]2C)ccn1    < 50 nM
C[C@@H]1CCN(c2cc(-c3ccccc3O)nnc2N)CCN1c1ccnc(C#CCN2C[C@@H]3C[C@H]2CO3)c1    50 to 500 nM
Nc1nnc(-c2ccccc2O)cc1N1C[C@H]2CN(c3ccnc(C#CCN4CC(F)(F)C4)n3)C[C@H]2C1    < 50 nM
Cc1oncc1C(=O)NCC#Cc1nccc(N2CCN(c3cc(-c4ccccc4O)nnc3N)CC2)n1    50 to 500 nM
Nc1nnc(-c2ccccc2O)cc1N1CCCN(c2ccnc(C#CCn3ccnc3)n2)CC1    50 to 500 nM

Query block: Need DC50, item Nc1nnc(-c2ccccc2O)cc1N1CCC2(CCN(c3ccnc(C#CCN4CC5CC4C5)n3)CC2)C1
Result block: 50 to 500 nM

Query block: Another compound: Nc1nnc(-c2ccccc2O)cc1N1C[C@@H]2C[C@H]1CN2c1ccnc(C#CCNC(=O)c2cc3ncccn3n2)n1
Result block: 500 to 5000 nM

----------
Quick reference: DC50 of the listed items.
biological target: SMARCA4-HiBiT HeLa cells (protein which is expressed from the SMARCA4 gene) (Homo sapiens); construct: protein which is expressed from the SMARCA2 and SMARCA4 genes; host or cells: HeLa (SMARCA4-HiBiT engineered line); assay: SMARCA4 degradation assay (HiBiT-fusion HeLa cell line, 24 h, luminescence); format: cell-based

The following compounds have reported results that may help.
CC(C#Cc1nccc(N2C3CCC2CN(c2cc(-c4ccccc4O)nnc2N)C3)n1)NC(=O)c1cc2ncccn2n1 (stereo not shown) [Compound P-97]    50 to 500 nM
CN(C)CC#Cc1nccc(N2CCCC(c3cc(-c4ccccc4O)nnc3N)CC2)n1 (stereo not shown) [Compound P-172]    < 50 nM
Nc1nnc(-c2ccccc2O)cc1N1CCCN(c2ccnc(C#Cc3cccc4nccn34)n2)CC1 [Compound P-306]    500 to 5000 nM
Nc1nnc(-c2ccccc2O)cc1N1CCCN(c2ccnc(C#CCN3C(=O)c4ccccc4C3=O)n2)CC1 [Compound P-375]    50 to 500 nM
Cc1c(C(=O)NCC#Cc2nccc(N3CCN(c4cc(-c5ccccc5O)nnc4N)CC[C@H]3C)n2)nn(C)c1C [Compound P-239]    50 to 500 nM
C[C@H]1CN(c2cc(-c3ccccc3O)nnc2N)[C@@H](C)CN1c1ccnc(C#CCNC(=O)c2cc3ncccn3n2)n1 [Compound P-343]    50 to 500 nM

Query block: Need DC50, item C[C@@H]1CCN(c2cc(-c3ccccc3O)nnc2N)CCN1c1ccnc(C#CCN2CCOCC2)c1 [Compound P-426]
Result block: 50 to 500 nM

----------
biological target: SMARCA2-HiBiT HeLa cells (protein which is expressed from the SMARCA2 gene) (Homo sapiens, UniProt P51531); construct: protein which is expressed from the SMARCA2 and SMARCA4 genes; host or cells: HeLa (SMARCA2-HiBiT engineered line); assay: SMARCA2 degradation assay (HiBiT-fusion HeLa cell line, 24 h, luminescence); assay type: cell-based
Sequence (P51531 whole entry, the tested form may be a part): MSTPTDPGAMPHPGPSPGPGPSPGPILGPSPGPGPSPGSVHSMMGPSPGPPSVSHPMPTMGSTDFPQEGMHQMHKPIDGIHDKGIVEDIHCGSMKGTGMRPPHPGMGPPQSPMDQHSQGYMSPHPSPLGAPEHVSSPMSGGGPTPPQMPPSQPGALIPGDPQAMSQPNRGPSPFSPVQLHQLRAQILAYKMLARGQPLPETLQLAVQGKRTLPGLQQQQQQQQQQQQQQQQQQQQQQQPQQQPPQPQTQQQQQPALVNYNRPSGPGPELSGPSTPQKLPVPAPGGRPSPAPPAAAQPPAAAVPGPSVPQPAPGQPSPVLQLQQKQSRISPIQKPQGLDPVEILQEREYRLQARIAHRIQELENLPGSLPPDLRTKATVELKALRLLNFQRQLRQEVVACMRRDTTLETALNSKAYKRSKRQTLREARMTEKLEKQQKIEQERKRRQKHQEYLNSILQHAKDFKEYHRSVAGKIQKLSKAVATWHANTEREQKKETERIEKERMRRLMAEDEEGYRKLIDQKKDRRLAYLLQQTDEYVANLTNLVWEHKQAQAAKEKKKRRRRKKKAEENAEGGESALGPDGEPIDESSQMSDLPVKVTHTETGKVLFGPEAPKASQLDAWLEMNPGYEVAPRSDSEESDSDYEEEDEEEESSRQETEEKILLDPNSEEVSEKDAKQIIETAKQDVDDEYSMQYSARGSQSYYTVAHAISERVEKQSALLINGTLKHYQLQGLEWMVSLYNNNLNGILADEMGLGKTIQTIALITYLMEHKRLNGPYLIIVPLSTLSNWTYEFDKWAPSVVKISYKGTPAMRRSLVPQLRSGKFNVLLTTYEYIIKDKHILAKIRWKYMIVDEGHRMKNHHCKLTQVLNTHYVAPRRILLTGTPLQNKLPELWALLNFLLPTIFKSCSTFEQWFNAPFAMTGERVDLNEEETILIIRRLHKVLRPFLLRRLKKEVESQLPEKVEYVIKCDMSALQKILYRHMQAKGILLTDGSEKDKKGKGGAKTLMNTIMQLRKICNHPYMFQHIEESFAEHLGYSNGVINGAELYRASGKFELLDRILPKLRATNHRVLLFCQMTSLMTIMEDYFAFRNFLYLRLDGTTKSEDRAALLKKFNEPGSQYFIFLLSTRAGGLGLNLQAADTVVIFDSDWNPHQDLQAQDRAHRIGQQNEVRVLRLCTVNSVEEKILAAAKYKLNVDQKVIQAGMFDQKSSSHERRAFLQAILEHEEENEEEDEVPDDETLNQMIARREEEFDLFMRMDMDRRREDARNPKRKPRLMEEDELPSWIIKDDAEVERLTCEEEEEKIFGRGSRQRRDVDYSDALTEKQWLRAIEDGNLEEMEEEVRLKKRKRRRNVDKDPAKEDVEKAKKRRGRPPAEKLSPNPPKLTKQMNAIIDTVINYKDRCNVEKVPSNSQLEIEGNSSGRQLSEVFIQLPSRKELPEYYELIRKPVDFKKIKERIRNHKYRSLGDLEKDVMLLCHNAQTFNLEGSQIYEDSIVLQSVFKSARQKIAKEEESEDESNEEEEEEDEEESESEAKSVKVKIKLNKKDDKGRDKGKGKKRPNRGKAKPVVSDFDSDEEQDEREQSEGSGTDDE
measured.metric: DC50

Query block: Need DC50, item C[C@H]1CN(c2ccnc(C#CCn3cncn3)n2)CCN1c1cc(-c2ccccc2O)nnc1N
Result block: 0.05 to 0.5 µM

Query block: Another compound: CCC1CN(CC#Cc2nccc(N3CCCN(c4cc(-c5ccccc5O)nnc4N)CC3)n2)c2ccccc2O1 (stereo not shown)
Result block: 0.05 to 0.5 µM

Query block: Another compound: C[C@H]1CN(c2ccnc(C#CCN)n2)CCN1c1cc(-c2ccccc2O)nnc1N
Result block: 0.5 to 5 µM

Query block: Another compound: NCC#Cc1nccc(N2CCC3(CC2)CCN(c2cc(-c4ccccc4O)nnc2N)CC3)n1
Result block: 0.5 to 5 µM

----------
Quick reference: DC50 of the listed items.
molecular target: SMARCA2-HiBiT HeLa cells (protein which is expressed from the SMARCA2 gene) (Homo sapiens, UniProt P51531); construct: protein which is expressed from the SMARCA2 and SMARCA4 genes; host or cells: HeLa (SMARCA2-HiBiT engineered line); assay: SMARCA2 degradation assay (HiBiT-fusion HeLa cell line, 24 h, luminescence); type: cell-based

The following compounds have reported results that may help.
C[C@@H]1CCN(c2cc(-c3ccccc3O)nnc2N)CCN1c1ccnc(C#CCN2CC[C@H](F)C2)n1    < 50 nM
Cn1ccc(OCC#Cc2nccc(N3CCCN(c4cc(-c5ccccc5O)nnc4N)CC3)n2)n1    50 to 500 nM
C[C@H]1CN(c2ccnc(C#CCNc3ccn(C)n3)n2)CCN1c1cc(-c2ccccc2O)nnc1N    50 to 500 nM
Nc1nnc(-c2ccccc2O)cc1N1CC2CCC(C1)N2c1ccnc(C#CCn2ccnc2)n1    50 to 500 nM
C[C@@H]1CCN(c2cc(-c3ccccc3O)nnc2N)CCN1c1ccnc(C#CC23CCC(C2)N3)n1 (stereo partly drawn)    500 to 5000 nM
C[C@@H]1CCN1CC#Cc1cc(N2CCN(c3cc(-c4ccccc4O)nnc3N)CC[C@H]2C)ccn1    < 50 nM
Nc1nnc(-c2ccccc2O)cc1N1CCN(c2ccnc(C#CCCNC(=O)c3cc4ncccn4n3)n2)CC1    50 to 500 nM
C[C@@H]1CCN(c2cc(-c3ccccc3O)nnc2N)CCN1c1ccnc(/C=C/CN(C)CCF)n1    < 50 nM

Query block: Need DC50, item Nc1nnc(-c2ccccc2O)cc1N1CC2(CCN(c3ccnc(C#CCNC(=O)c4cc5ncccn5n4)n3)CC2)C1
Result block: 50 to 500 nM

Query block: Another compound: C[C@@H]1CCN(c2cnnc(-c3ccccc3O)c2)CCN1c1ccc(C#N)c(C#CCNC(=O)c2cc3ncccn3n2)n1
Result block: > 5000 nM

Query block: Another compound: C[C@@H]1CCN(c2cc(-c3ccccc3O)nnc2N)CCN1c1ccnc(C#CCN2CC(F)(F)C3(CCC3)C2)n1
Result block: 50 to 500 nM

Query block: Another compound: Nc1nnc(-c2ccccc2O)cc1N1CCN(c2ccnc(C#CCNC(=O)c3cc4n(n3)CCCO4)n2)CC1
Result block: 50 to 500 nM

Query block: Another compound: Nc1nnc(-c2ccccc2O)cc1N1CCCN(c2ccnc(C#CCn3ccnc3)n2)CC1
Result block: 50 to 500 nM

Query block: Another compound: CN(C)CC#Cc1cc(N2C[C@@H]3CN(c4cc(-c5ccccc5O)nnc4N)C[C@@H]3C2)ccn1
Result block: 50 to 500 nM

Query block: Another compound: Nc1nnc(-c2ccccc2O)cc1N1C2CCC1CN(c1ccnc(C#CCNC(=O)c3cc4ncccn4n3)n1)C2
Result block: 50 to 500 nM

These data points were gathered from patent US20260265238A1.
